Each entry below lists one item and its recorded melting point value.

CCOC(=O)/C(=C/c1ccc(OC)c2c1CC(C)(C)O2)c1ccncc1 :: 98 to 100 °C
CCOC(=O)c1ccc(Cc2ccc(O)cc2)cn1 :: 153 to 156 °C
CCCc1nc(C=Cc2ccccc2)c(C(=O)O)n1Cc1cc2c(cc1Cl)OCO2 :: 230 °C

Prompt: Specify melting point for COc1cc(/C=C/c2ccc(N)cc2)cc(OC)c1OC and stop.
Completion: 251 to 253 °C

Prompt: Specify melting point for CC1=NS(=O)(=O)N(C(c2ccccc2)c2ccccc2)C=C1 and stop.
Completion: 174 to 177 °C

Prompt: Specify melting point for CN1CCCC1=C(C#N)C(=O)c1ccc(Cl)cc1 and stop.
Completion: 115 °C

Prompt: Specify melting point for CC(C#N)(c1ccccc1)c1ccc(Cl)nn1 (stereo unspecified) and stop.
Completion: 116 to 118 °C

Prompt: Specify melting point for Cc1ccc(Nc2nc(CO)cs2)c(O)c1 and stop.
Completion: 188 to 190 °C

Prompt: Specify melting point for CC(C)OC(=O)c1n[nH]c2c(=O)[nH]c3cc(Cl)ccc3c(=O)c12 and stop.
Completion: 291 °C

Prompt: Specify melting point for CC(C)(C)OC(=O)c1ncn2c1[C@@H]1CCCN1C(=O)c1c-2cccc1S(C)(=O)=O and stop.
Completion: 244 °C

Prompt: Specify melting point for Cc1ccc(-c2ccc(CO)cc2)cc1 and stop.
Completion: 128 to 131 °C

###

Each entry below lists one item and its recorded melting point value.

CC(=O)Nc1nc(N)nc(-c2ccc(Oc3ccccc3)cc2)n1 :: > 260 °C
CN1CC=C(c2c[nH]c3ccc(Oc4ccccc4)cc23)CC1 :: 135 to 137 °C
O=C(NC(CS)Cc1ccccc1)N1CCN(c2ccc(Cl)cc2)CC1 (single isomer, unassigned; (+)) :: 148 °C
O=C(O)Cc1cc(C(=O)c2ccc(Cl)cc2)ccc1O :: 250 °C

Now for another entry.
Prompt: Specify melting point for Cc1cc(C)nc(NCC#N)c1 and stop.
Completion: 92 to 93 °C

###

Readout label: melting point

Here are 3 compounds together with their reported answers.
O=C(NCC12CC3CC(CC(C3)C1)C2)c1cc(-c2cc(F)ccc2C(=O)O)ccc1Cl :: 120 to 124 °C
CCCCCCCCCCCCCCC(=O)C(=O)NC(C=CC(=O)OC)CCCC (stereo not given) :: 48 to 50 °C
CCOC(=O)C1=Cc2cccc(NC(=O)CCCCl)c2OCC1 :: 98 to 99 °C

Prompt: Specify melting point for CNC(=S)Nc1nc(C(C)c2ccc(-c3ccccc3)c(F)c2)cs1 (stereo not given) and stop.
Completion: 180 to 181 °C

Prompt: Specify melting point for Cc1ccccc1C(=O)Nc1ccc(C(=O)N2CCCC(COS(C)(=O)=O)c3ccccc32)cc1 (stereo not given) and stop.
Completion: 189 to 190 °C

Prompt: Specify melting point for COc1cc(CC(=O)CCNCCOc2ccc(C(=O)O)cc2OC)ccc1NC(=O)Nc1ccccc1F and stop.
Completion: 105 to 110 °C

Prompt: Specify melting point for Cc1cn(C(C)(C)C(N)=O)nc1-c1ccccc1 and stop.
Completion: 105 to 106 °C

Prompt: Specify melting point for Brc1cccc(-c2cn([C@H]3CN4CCC3CC4)nn2)c1 and stop.
Completion: 188 °C

Prompt: Specify melting point for CCc1cc2c(cc1Cl)C=C(C(=O)O)C(C(F)(F)F)O2 (stereo not given) and stop.
Completion: 171 to 172 °C

Prompt: Specify melting point for O=S1(=O)N=C(NCc2ccccc2)Nc2cc(Cl)sc21 and stop.
Completion: 223 to 226 °C

###

Readout label: melting point

Here are 10 molecules together with their reported answers.
O=C(Cc1ccsc1)Nc1ncc(Cl)cc1Cl :: 159 to 160 °C
CC1=C(c2ccncc2Cl)SCC(=O)N1 :: 169 to 171 °C
C[C@H]1[C@H](N)CN1C(c1ccccc1)c1ccccc1 (relative stereo) :: 68 to 69 °C
CCCc1nc2c(N)nc3cc(OCCCN4CCCS4(=O)=O)ccc3c2n1CC(C)C :: 142 to 144 °C
Cc1nc(N2CCN(Cc3ccccc3)C2=O)sc1C(=O)NCc1cc(F)cc(F)c1 :: 208 to 209 °C
CCCCCCCNC(=O)Oc1ccc2c(c1)CCCN2C :: 60 °C
Cn1cc(Oc2cccc(C(F)(F)F)c2)c(=O)c(-c2cccc(C(F)(F)F)c2)c1 :: 93 to 95 °C
O=C(NCCCSc1ccncc1)c1ccccc1CO :: 110 to 111 °C
CCOC(=O)c1cn(Cc2c(F)cccc2F)c2sc(-c3ccccc3)c(CBr)c2c1=O :: 206 °C
O=C(N[C@H]1CC[C@H](CCN2CCN(c3nccc4c3OCC4)CC2)CC1)c1ccc(-n2cccn2)cc1 :: 226 °C

Prompt: Specify melting point for O[C@@H]1C=C[C@H](n2cnc3c(NCC(c4ccccc4)c4ccccc4)ncnc32)C1 (racemic) and stop.
Completion: 165 to 169 °C

Prompt: Specify melting point for CCCCCCCS(=O)(=O)c1nn2c(=O)c(C)c(F)nc2s1 and stop.
Completion: 143 to 146 °C

Prompt: Specify melting point for CC(CO)(CCCCN1C(=O)c2ccccc2C1=O)c1ccccc1 (stereo not given) and stop.
Completion: 149 to 150 °C

Prompt: Specify melting point for c1ccc(C(=C(c2ccccc2)P(C2CCCCC2)C2CCCCC2)c2ccccc2)cc1 and stop.
Completion: 121 to 123 °C

Prompt: Specify melting point for CC(C)CCNS(=O)(=O)c1cc(C(=O)NC2CCc3ccccc32)ccc1Oc1ccccc1 (stereo not given) and stop.
Completion: 73 °C

###

Readout label: melting point

Here are 8 molecules together with their reported answers.
CCOC(=O)C1=C(COCc2nnn(CCN)n2)NC(C)=C(C(=O)OC)C1c1ccccc1Cl (centres undefined) :: 126 to 127 °C
CC1(C)Oc2ccc(C#N)cc2C(Nn2ccccc2=O)C1(C)O (centres undefined) :: 184 to 187 °C
CC(C)(C)c1cc(CCc2ccccc2NC(=O)NC23CC4CC(CC(C4)C2)C3)cc(C(C)(C)C)c1O :: 197 to 199 °C
COc1ccc(C(=O)Nc2ccc(C(C)(C)C#N)c(-c3cncnc3)c2)cc1OC :: 198 to 200 °C
O=C(C=Cc1ccccc1O)C=Cc1ccccc1O :: 155 °C
O=[N+]([O-])C=C1NCCN1Cc1ccc(F)nc1 :: 139 to 142 °C
COc1ccc(Oc2ccccc2-c2cn(C(C)(C)C)c(N)c2C#N)cc1 :: 171 to 172 °C
CCc1nnc2c(Cl)nc3ccccc3n12 :: 158 to 160 °C

Now for another entry.
Prompt: Specify melting point for COc1cc2c(cc1[N+](=O)[O-])-c1c(-c3cccs3)c3c(n1CC2)C(=O)N(C(C)(C)C)CCC3 and stop.
Completion: 279 to 280 °C

###

Each entry below lists one item and its recorded melting point value.

Here are 5 molecules together with their reported answers.
O=S1(=O)CCN2C=C(F)C=C(c3ccc(Oc4ccccc4)cc3)C2=N1 :: 91.9 to 92 °C
CCC1CN2C(C)=Nc3c(C)nn(C)c3C2=N1 (stereo unspecified) :: 121 to 123 °C
CCCCCCCCCCCCCCCCSCC(O)CO (stereo unspecified) :: 72 to 74 °C
OCc1cc(I)cc(I)c1 :: 136 to 140 °C
CC(=O)OCC1OC(n2c3ncccc3c3c4c(c5c6ccccc6[nH]c5c32)C(=O)N(C)C4=O)C(OC(C)=O)C(OC(C)=O)C1OC(C)=O (stereo unspecified) :: 302 to 304 °C

Now for another entry.
Prompt: Specify melting point for CCCn1nc2c(N)nc3ccccc3c2c1CC(C)(C)C#N and stop.
Completion: 248 to 250 °C

###

Each entry below lists one item and its recorded melting point value.

Here are 5 compounds together with their reported answers.
CCCCCCCCCCCCSC(C)(C)C(=O)O :: 62 to 64 °C
N=c1n(CCO)c2ccccc2n1-c1ccccc1 :: 210 to 212 °C
Nc1nc2cc(Cl)c(Cl)cc2n1C1OC(CO)C(O)C1O (stereo not given) :: 145 °C
C=CCOc1cc(OCc2ccc3ccccc3c2)cc(C(=O)c2nccs2)c1 :: 65 to 67 °C
Cc1c(SCCCSc2ccncc2)ccnc1CSc1ccncc1 :: 116 to 118 °C

Prompt: Specify melting point for O=c1[nH]c2sc3cc(Br)c(F)cc3c2[nH]c1=O and stop.
Completion: > 300 °C

Prompt: Specify melting point for C=NOC(c1ccc(C(=O)O)cc1)c1c(C)nn(C)c1Oc1ccccc1 (stereo not given) and stop.
Completion: 183 °C

Prompt: Specify melting point for C=C(C(N)=O)N1CCC(c2ccc(OC(C)=O)c(OC)c2)C1c1ccccc1 (stereo not given) and stop.
Completion: 113 to 116 °C

Prompt: Specify melting point for N#CCCNC(=O)c1cccc(-c2cccc3oc(Cc4cccc(C(F)(F)F)c4)nc23)c1 and stop.
Completion: 117 to 118 °C

Prompt: Specify melting point for CC(C(C#N)C(=O)O)C(C)(C)C (stereo not given) and stop.
Completion: 68 to 78 °C

Prompt: Specify melting point for CC(C)(C)OC(=O)N1CCn2c(c(C(N)=S)c(Cl)c2-c2cccnc2)C1 and stop.
Completion: 220 to 221 °C

Prompt: Specify melting point for COC(=O)CCC(C)C1CCC2C3CCC4CC(N=[N+]=[N-])CCC4(C)C3CC(=O)C12C (stereo not given) and stop.
Completion: 153 °C

Prompt: Specify melting point for CSC(=C[N+](=O)[O-])NCCCBr and stop.
Completion: 92 to 92.5 °C

Prompt: Specify melting point for C#Cc1cc(Cc2cnc(N)nc2N)cc(OC)c1OC and stop.
Completion: 173 to 175 °C

Prompt: Specify melting point for Cc1ccccc1CC(=NC#N)NC(NC(=O)Cc1cccc2ccccc12)C(C)(C)C (stereo not given) and stop.
Completion: 97 to 100 °C
